Target: T1, OC43 S1B+C (S1B and S1C domains of the hCoV-OC43 spike glycoprotein) (human coronavirus OC43, UniProt P36334 321-675)
T1 construct: also called recombinant OC43 S1B+C; recombinant OC43 protein; source: Expi293F, transfected, purified from supernatant (Ni-NTA IMAC, SEC); not shown: His6, C-terminal, cleaved
T1 sequence (looked up): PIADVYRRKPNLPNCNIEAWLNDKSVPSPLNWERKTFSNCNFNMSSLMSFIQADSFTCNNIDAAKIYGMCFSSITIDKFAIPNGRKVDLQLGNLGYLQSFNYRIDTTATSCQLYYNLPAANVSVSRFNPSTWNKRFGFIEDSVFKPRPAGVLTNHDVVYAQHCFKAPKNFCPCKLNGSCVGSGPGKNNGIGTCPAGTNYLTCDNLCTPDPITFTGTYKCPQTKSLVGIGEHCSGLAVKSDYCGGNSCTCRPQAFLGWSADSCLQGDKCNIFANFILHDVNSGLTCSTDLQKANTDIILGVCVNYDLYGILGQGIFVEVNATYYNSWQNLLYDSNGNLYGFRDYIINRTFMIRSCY
Assay: BLI
Conditions: both partners purified
MEASURED_ATTRIBUTE: pKd
Recall that pKd is obtained by taking minus log10 of the concentration measured in molar.

A selection of reference data follows.
WNb 293 (VHH) VHH: QVQLQESGGGSVQAGDSLRLSCVASGRTFSSYALGWFRRAPGKEREFVAAISWSGGTTYYADSVKGRFTISRDNAKNTVYLQMNSLKPEDTAVYYCAALWDGGSWYPEGLSDFGSWGQGTQVTVSS : 8.34
WNb 289 (VHH) VHH: QVQLQESGGGLVQAGGSLRLSCAASGRTFSDYAMGWFRQAPGKEREFVATISWSGGTTYYADSVKGRFTISRDNAKNTVYLQMNSLKPEDTAVYYCAAVMDLGMLAADGYEYDYWGQGTQVTVSS : 8.33
WNb 298 (VHH) VHH: QVQLQESGGGLVQPGGSLRLSCAASGRTFSDYFMGWFRQAPGKEREFVASISWSGGTTYYADSVKGRFTISRDNAKNTVYLQMNSLKPEDTAVYYCAAEIDYGLGLHAAADFGSWGQGTQVTVSS : 8.05

Requested field: pKd. Item: WNb 278 (VHH) VHH: QVQLQESGGGLVQAGGSLRLSCAASGRTFSDYFMGWFRQAPGMEREFVASISWSGGTTYYADSVKGRFTISRDNTKNTVYLQMNSLKPEDTAVYYCATAIDYGLGLTVEYEYDYWGQGTQVTVSS
8.23
